Values compiled from PubChem BioAssay (NCI).

# System: SN12C renal
# PROTOCOL DESCRIPTION: NCI tumour cell line growth inhibition, 48 h
Quick reference for TGI among some molecules

MOLECULE	UNIT OF MEASURE	RELATION QUALIFIER	TGI
O=C(CSCC(=O)N/N=C\c1cccc(Br)c1)N/N=C\c1cccc(Br)c1	µM	=	35.2
COc1cc(OC)cc(-c2nc3ccccc3c(=O)[nH]2)c1	µM	>	100
Cc1cccc2c1C(=O)OC2(c1cccc2ccccc12)c1cccc2ccccc12	µM	>	100
CC1C/C(=C\c2ccc(O)c(O)c2)C(=O)/C(=C/c2ccc(O)c(O)c2)C1 (centres undefined)	µM	=	20.4
Nc1nc(Cl)cc(NCC2CC(O)(CO)C2)n1 (centres undefined)	µM	>	100
O=C(c1cccs1)N(C(=O)N1CCCCC1)c1ccccc1	µM	>	100
COc1cc(C2CC(c3cc(Cl)c(C)cc3O)=NN2c2ccc(S(N)(=O)=O)cc2)cc(OC)c1OC (centres undefined)	µM	=	10.3
CC(=O)N1C(=O)/C(=C\C(=O)c2ccc(Cl)cc2)c2ccccc21	µM	=	32.1
CC(=O)OCC12C(OC(C)=O)C[C@@H](C)C3(CC(c4ccoc4)OC3=O)C1CCC(OC(C)=O)C21CO1 (some centres undefined)	µM	>	100
COC(=O)C12CC(NC(=O)c3csc([C@@H](C[C@H](C(C)C)N(C)C(=O)[C@@H](NC(=O)[C@H]4CCCCN4C)C(C)C)OC(C)=O)n3)(C1)C2	µM	>	33.3
S=C1NC2=C(CCOc3c2ccc2ccccc32)C(c2ccc(Cl)cc2)N1 (centres undefined)	µM	=	66
c1ccc2c(Nc3ccc4c(c3)OCO4)c3ccoc3nc2c1	µM	=	82.1
CN1CCN(Cc2ccc(NC(=O)c3cncc(C#Cc4cncc5[nH]ncc45)c3)cc2C(F)(F)F)CC1	µM	=	5.73
NS(=O)(=O)c1ccc(NS(=O)(=O)c2ccc(NC(=O)N(c3ccccc3)c3ccccc3)cc2)cc1	µM	>	100
Cc1cnc2cc(Cl)ccc2c1SCC(=O)O	µM	>	100
CC1(C)CC(=O)C=C(NC(=O)c2ccccc2)C1	µM	>	100
CN(C)CCSc1nccc(-c2ccc(-c3ccnc(SCCN(C)C)n3)s2)n1	µM	=	21
O=C(O)CCC(NC(=O)/C(=C/c1ccccc1)NC(=O)c1ccccc1)C(=O)O (centres undefined)	µM	>	100
CC(C)=CCCC1(C)C=Cc2c(ccc3c2[nH]c2cc(O)c(C)cc23)O1 (centres undefined)	µM	=	8.24
CC(C)c1cc(C(C)C)c(B(c2ccccc2)c2ccccc2)c(C(C)C)c1Br	µM	>	100
CCC(C)Cn1c(C)nc2c1C(=O)c1ccccc1C2=O (centres undefined)	µM	>	100
O=C(N/N=C\c1cc(Br)cc(Br)c1O)N/N=C/c1cc(Br)cc(Br)c1O	µM	=	17.8
O=[N+]([O-])C1(CO)COC2(OC1)c1ccccc1-c1ccccc12	µM	>	100
O=C(/C=C/c1ccc(OCCCOc2ccc(/C=C/C(=O)c3ccc(Cl)cc3)cc2)cc1)c1ccc(Cl)cc1	µM	>	100

###

# System: MOLT-4 leukemia
# PROTOCOL DESCRIPTION: NCI tumour cell line growth inhibition, 48 h
Below, each entry is listed with its recorded TGI.

COMPOUND	TGI
CCOC(=O)c1sc2[n+](c1C)C(=O)/C(=C/c1ccccc1Cl)S2	15 µM
CC(C)(C)C1=CC(O)(c2c3ccccc3c(C3(O)C=C(C(C)(C)C)C(=O)C(C(C)(C)C)=C3)c3ccccc23)C=C(C(C)(C)C)C1=O	> 100 µM
COc1cc(OC)cc(-c2nc3ccccc3c(=O)[nH]2)c1	> 100 µM
N#Cc1nc(-c2ccccn2)c(-c2ccccn2)nc1C#N	> 30.6 µM
N#CC(N)(C(=O)C(=O)NCCCNC(=O)C(=O)C(N)(C#N)c1ccc(Cl)cc1)c1ccc(Cl)cc1 (stereo unspecified)	> 100 µM
COC1OC2COC(c3ccccc3)OC2C(OC(=S)c2ccccc2)C1O (stereo unspecified)	> 100 µM
CCN(CC)c1ccc(/C=C2/NC(=O)NC2=O)cc1	> 100 µM
O=C(CSCC(=O)N/N=C\c1cccc(Br)c1)N/N=C\c1cccc(Br)c1	73 µM
C=C1CC2C[C@H](OS(=O)(=O)c3ccc(C)cc3)C(C1)N2C (stereo partly specified)	> 100 µM
O=C(N(C1=CCCC1)N(c1ccccc1)c1ccccc1)C(F)(F)F	76.2 µM
O=C(Nc1ccccc1C(=O)O)C(=Cc1ccccc1O)NC(=O)c1ccccc1	> 100 µM
Fc1sc2c(c1F)C1CCC2C1 (stereo unspecified)	86.8 µM
CC(=O)OCC12C(OC(C)=O)C[C@@H](C)C3(CC(c4ccoc4)OC3=O)C1CCC(OC(C)=O)C21CO1 (stereo partly specified)	> 100 µM
CN1C(=O)[C@](C)(Cc2ccc(F)cc2)N(C(=O)OC(C)(C)C)[C@@H]1C(C)(C)C	40.6 µM
COC(=O)C1=C(C)NC(C)=C(C(=O)OC)C1c1ccccc1[N+](=O)[O-]	> 100 µM
O=C1c2ccccc2-c2c1c1ccccc1c(=O)n2CCCNCCO	0.522 µM
COc1ccc(Nc2ccnc3cc(Cl)ccc23)cc1CN(CCCl)CCCl	2.61 µM
CC1CN=C(N(C(=O)Nc2ccccc2)C2CCCCC2)S1 (stereo unspecified)	38.8 µM
Cc1ccc(S(=O)(=O)N/N=C/CN2C(=O)c3ccccc3C2=O)cc1	> 100 µM
CC(C)c1cc(C(C)C)c(B(c2ccccc2)c2ccccc2)c(C(C)C)c1Br	> 100 µM
CC[C@@]1(O)C(=O)N(CCN(C)C)Cc2c1cc1n(c2=O)Cc2cc3ccccc3nc2-1	> 100 µM
